Tested on: SW620
Experiment: CCK-8 tumor cell proliferation, SW620
Type: cell-based, Human
Settings: Homo sapiens, SW-620; Table 18, FAK inhibitor based; SW620; read-out: IC50 inhibiting proliferation of tumor cells, SW620
IC50 overview

What does the data say about its IC50? Entry: CS(=O)(=O)c1cccc(CNc2nc(Nc3ccc(N4CCN(Cc5cc6c(cc5F)C(=O)N(C5CCC(=O)NC5=O)C6)CC4)cc3)ncc2C(F)(F)F)c1 (stereo not shown)
< 50 nM

What does the data say about its IC50? Entry: CNC(=O)c1ccccc1Nc1cc(Nc2ccc(N3CCC(NCc4ccc5c(c4)CN(C4CCC(=O)NC4=O)C5=O)CC3)cc2OC)ncc1C(F)(F)F (stereo not shown)
500 to 1000 nM

What does the data say about its IC50? Entry: CS(=O)(=O)c1cccc(CNc2nc(Nc3ccc(N4CCN(Cc5ccc6c(c5F)CN(C5CCC(=O)NC5=O)C6=O)CC4)cc3)ncc2C(F)(F)F)c1 (stereo not shown)
< 50 nM

What does the data say about its IC50? Entry: CN(c1nccnc1CNc1nc(Nc2ccc(N3CCC(N4CCN(Cc5ccc6c(c5)CN(C5CCC(=O)NC5=O)C6=O)CC4)CC3)cc2)ncc1C(F)(F)F)S(C)(=O)=O (stereo not shown)
500 to 1000 nM
